system: Escherichia coli ED1a; assay: growth AUC relative to DMSO control (median of replicates) (fraction); higher = more growth (less inhibition), active = hit call of the paper; conditions: 20 µM; 24 h;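 active = AUC reduced over 20% with Padj below 0.05 in at least 2 of 3 replicates; inactive = otherwise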
Bench note: report the call from active, inactive

Input: For COc1ccc(-c2ccccc2)cc1NNC(=O)OC(C)C , which call appears in the assay record?
Output: inactive

Input: Short answer needed: outcome of this test for CC(C)OC(=O)C(C(=O)OC(C)C)=C1SCCS1 ?
Output: inactive

Input: For CCCCC(CC)COC(=O)c1ccccc1C(=O)OCC(CC)CCCC (centres undefined) , what call appears in the results of this test?
Output: inactive

Input: What was the test verdict on COc1ccc(C(c2ccc(OC)cc2)C(Cl)(Cl)Cl)cc1 ?
Output: inactive

Input: In this assay, the call recorded for CSc1nc(N=[N+]=[N-])nc(NC(C)C)n1 was what?
Output: inactive

Input: Which result was noted for this compound in the test: O=[N+]([O-])c1cc(C(F)(F)F)c(Cl)c([N+](=O)[O-])c1Nc1ncc(C(F)(F)F)cc1Cl
Output: inactive

---

tested on: Collinsella aerofaciens; experiment: growth AUC relative to DMSO control (median of replicates) (fraction); higher = more growth (less inhibition), active = hit call of the paper; details: 20 µM; 24 h
Can you tell me growth AUC for the items I'm about to list?
One number for each entry.

Here are 10 compounds together with their reported answers.
Observed growth AUC, Collinsella aerofaciens, CCc1cccc(C)c1N(C(=O)CCl)C(C)COC (stereo not drawn) : 1.02

Case Clc1ccc(C(c2ccc(Cl)cc2)C(Cl)(Cl)Cl)cc1 , Collinsella aerofaciens, growth AUC recorded as 0.869

The reported growth AUC value, Collinsella aerofaciens, for Cc1cnc2c(C(=O)O)c(Cl)ccc2c1 reads 1.01

Value (growth AUC, Collinsella aerofaciens) for record CN=C=S = 1.02

Value (growth AUC, Collinsella aerofaciens) for record C=C(C)[C@H]1Cc2c(ccc3c2O[C@@H]2COc4cc(OC)c(OC)cc4[C@@H]2C3=O)O1 = 0.987

Readout growth AUC for Oc1ccc(Cl)cc1Cc1cc(Cl)ccc1O , test system Collinsella aerofaciens, was 0.878

Record for COC(=O)NC(=S)Nc1ccccc1NC(=S)NC(=O)OC under target or system Collinsella aerofaciens: growth AUC reported as 1.01

Reading of growth AUC for CNC(=O)ON=C(C)C(C)SC (stereo not drawn) with Collinsella aerofaciens: 0.979

Collinsella aerofaciens assay, compound Oc1ccc(Cl)cc1 , recorded growth AUC = 0.988

Tested on Collinsella aerofaciens, the item O=CNC(N1CCN(C(NC=O)C(Cl)(Cl)Cl)CC1)C(Cl)(Cl)Cl (stereo not drawn) showed growth AUC equal to 0.938

State recorded growth AUC for all listed compounds.
1. CCOC(=O)N(C)C(=O)CSP(=S)(OCC)OCC
2. ClC1(Cl)C2(Cl)C3(Cl)C4(Cl)C(Cl)(Cl)C5(Cl)C3(Cl)C1(Cl)C5(Cl)C24Cl (stereo not drawn)
3. C#CC(C)(C)NC(=O)c1cc(Cl)cc(Cl)c1
4. C=CC(N)=O

Output:
1. 0.997
2. 0.94
3. 0.936
4. 1.01

Below is a list of compounds. For each, state its recorded growth AUC.
1. O=[N+]([O-])c1ccccc1
2. COC(=O)NCc1cc(/C(C)=N\OCc2cccc(C)n2)ccc1Cl
3. CC(C)OC(=O)Nc1cccc(Cl)c1
4. CCC(C)c1cc([N+](=O)[O-])cc([N+](=O)[O-])c1O (stereo not drawn)
5. O=C(O)COc1ccc(Cl)cc1Cl
6. COP(=S)(OC)Oc1ccc(SC)c(C)c1
7. CCOP(=S)(Oc1ccc([N+](=O)[O-])cc1)c1ccccc1 (stereo not drawn)
8. CCO/N=C(\CC)C1=C(O)CC(c2c(C)cc(C)cc2C)CC1=O (stereo not drawn)

Output:
0.951
0.969
0.963
0.956
0.988
0.977
0.996
0.943

Respectfully, I request growth AUC for each entry included below.
1. CCOP(=S)(OCC)SCSP(=S)(OCC)OCC
2. CC(C)(C)C(O)C(Oc1ccc(Cl)cc1)n1cncn1 (stereo not drawn)
3. CCNc1nc(NC(C)C)nc(SC)n1

Output:
1: 0.996; 2: 1.03; 3: 0.983

---

system: Lactobacillus paracasei; experiment: growth AUC relative to DMSO control (median of replicates) (fraction); higher = more growth (less inhibition), active = hit call of the paper; conditions: 20 µM; 24 h
Would you please tag the item y when its growth AUC is 1 or above, and n when it is below?

Input: Dear colleague, could you confirm whether Clc1cc(Cl)c(Cl)c(Cl)c1 has growth AUC at or above 1?
Output: n

Input: Determine whether measured growth AUC meets or exceeds 1 for CCc1cc(C)cc(CC)c1-c1c(OC(=O)C(C)(C)C)n2n(c1=O)CCOCC2
Output: y

Input: State whether the measured growth AUC reaches 1, counting equality as reaching it, for Cc1ccc(N=CN(C)C=Nc2ccc(C)cc2C)c(C)c1
Output: y

Input: Does growth AUC meet or surpass 1 for Oc1ccc(Cl)cc1Cc1cc(Cl)ccc1O ?
Output: n

Further cases:
Input: Say whether Cc1cnc2c(C(=O)O)c(Cl)ccc2c1 shows growth AUC of 1 or more.
Output: y

Input: Decide: is the reported value of growth AUC for O=C(Nc1ccccc1)Nc1cnns1 equal to or greater than 1?
Output: y

Input: Textbook exercise: given the entry Cc1cccc2sc3nncn3c12 , state whether its growth AUC is greater than or equal to 1.
Output: n

Input: Has N#Cc1c[nH]cc1-c1cccc(Cl)c1Cl a recorded growth AUC greater than or equal to 1?
Output: y

Input: Item NC(=S)c1c(Cl)cccc1Cl with growth AUC of 1 or above?
Output: n

Input: Determine whether this compound has growth AUC no lower than 1: COCc1c(F)c(F)c(COC(=O)[C@@H]2[C@@H](C=C(Cl)Cl)C2(C)C)c(F)c1F
Output: y

Input: In plain terms: is recorded growth AUC at least 1 for N#Cc1nn(-c2c(Cl)cc(C(F)(F)F)cc2Cl)c(N)c1S(=O)(=O)C(F)(F)F ?
Output: n

---

test system: Roseburia intestinalis; assay: growth AUC relative to DMSO control (median of replicates) (fraction); higher = more growth (less inhibition), active = hit call of the paper; details: 20 µM; 24 h
recordedEndpoint: growth AUC
Answers are plain numbers.

Example entries and their recorded answers appear below.
In plain terms, COc1cc(Cl)c(OC)cc1Cl has a documented growth AUC of 1.04

Sure, the documented growth AUC for Cc1ccn2nc(S(=O)(=O)Nc3c(F)cccc3F)nc2n1 is 0.997

The reported growth AUC of the compound COc1ccccc1N was 1.03

Record summary for COc1ccc(/C(=C/C(=O)N2CCOCC2)c2ccc(Cl)cc2)cc1OC : reported growth AUC = 1.06

Each compound below has a reported value. Please supply its growth AUC.
1. CCOP(=S)(OCC)Oc1cc(Cl)c(SC)cc1Cl
2. CC(C)OP(=O)(OC(C)C)SCc1ccccc1

Output:
1: 0.994; 2: 0.951

---

Exercise: for every item that follows, state its recorded growth AUC.
tested on: Bacteroides dorei; test: growth AUC relative to DMSO control (median of replicates) (fraction); higher = more growth (less inhibition), active = hit call of the paper; conditions: 20 µM; 24 h

The following molecules have reported results that may help.
Briefly, growth AUC measured for CCOc1cc(OP(=S)(OC)OC)nc(CC)n1 : 1.01 (inactive)

The molecule listed as CCCN(CCC)c1c([N+](=O)[O-])cc(C(F)(F)F)cc1[N+](=O)[O-] has a reported growth AUC of 1.03 (inactive)

Parameters: items (list). Returns: growth AUC for each item.
1. CN(C)C(=S)[S-].CN(C)C(=S)[S-].[Zn+2]
2. CCOP(=S)(OCC)SCSP(=S)(OCC)OCC
3. CCOP(=S)(Oc1ccc([N+](=O)[O-])cc1)c1ccccc1 (centres undefined)
4. CCCN(CCC)c1c([N+](=O)[O-])cc(C(C)C)cc1[N+](=O)[O-]

Output:
1. 0.857 (inactive)
2. 0.974 (inactive)
3. 0.972 (inactive)
4. 0.994 (inactive)

Quick batch: growth AUC for everything below.
1. CCCSP(=S)(OCC)Oc1ccc(SC)cc1 (centres undefined)
2. Cc1c(N)cccc1N
3. CCN(Cc1ccc(Cl)nc1)/C(=C/[N+](=O)[O-])NC
4. COP(=S)(OC)Oc1cc(Cl)c(I)cc1Cl

Output:
1 (inactive)
1 (inactive)
0.975 (inactive)
0.985 (inactive)

Respectfully, I request growth AUC for each entry included below.
1. C1CCC(NC2CCCCC2)CC1.O=NO
2. Cc1cc(C)nc(Nc2ccccc2)n1
3. O=CNC(N1CCN(C(NC=O)C(Cl)(Cl)Cl)CC1)C(Cl)(Cl)Cl (centres undefined)
4. ClC1=C(Cl)[C@]2(Cl)[C@@H]3[C@@H]4C[C@@H]([C@H]5O[C@@H]45)[C@@H]3[C@@]1(Cl)C2(Cl)Cl
5. COP(=S)(OC)Oc1ccc([N+](=O)[O-])cc1

Output:
1: 0.991 (inactive); 2: 1 (inactive); 3: 0.849 (inactive); 4: 1 (inactive); 5: 0.888 (inactive)

Items follow; give growth AUC for each.
1. CCOCn1c(-c2ccc(Cl)cc2)c(C#N)c(Br)c1C(F)(F)F
2. CN(C)C1CSSSC1.O=C(O)C(=O)O
3. CCSC(=O)N(CC)C1CCCCC1

Output:
1: 0.945 (inactive); 2: 1.17 (inactive); 3: 1.02 (inactive)

Hey, quick one: what's growth AUC for each of these?
1. C[C@@H](Oc1ccc(Oc2nc3ccc(Cl)cc3o2)cc1)C(=O)O
2. CCCCOCN(C(=O)CCl)c1c(CC)cccc1CC
3. CCCCOC(=O)[C@@H](C)Oc1ccc(Oc2ccc(C#N)cc2F)cc1
4. CCOP(=O)(N=C1SCC(C)S1)OCC (centres undefined)
5. CCOC(=O)C(O)(c1ccc(Cl)cc1)c1ccc(Cl)cc1
6. O=C(O)c1cc(Cl)ccc1Cl

Output:
["0.924 (inactive)", "0.944 (inactive)", "0.969 (inactive)", "1.03 (inactive)", "0.951 (inactive)", "0.961 (inactive)"]
